experiment: Stability in aqueous media (FaSSIF, SGF, PBS); type: physicochemical; details: SGF pH 1.2, 37° C., 24 h
Entries and their SGF (pH 1.2) % remaining 24 h
ENDPOINT NAME: SGF (pH 1.2) % remaining 24 h (%)

| MOLECULE | VALUE UNIT | VALUE OBSERVED |
| --- | --- | --- |
| CCOC(=O)c1ccc2c(c1)nc(OCCOCCCCNCc1cc(F)c(OC(F)(F)F)c(F)c1)c1ccncc12 [Example 8] | % | 23.3 |
| CC(C)OC(=O)OCOC(=O)c1ccc2c(c1)nc(OCCOCCCCNCc1cc(F)c(OC(F)(F)F)c(F)c1)c1ccncc12 [Example 14] | % | 23.2 |
| CC(C)C(=O)OCOC(=O)c1ccc2c(c1)nc(OCCOCCCCNCc1cc(F)c(OC(F)(F)F)c(F)c1)c1ccncc12 [Example 5] | % | 13.0 |
| COC(=O)c1ccc2c(c1)nc(OCCOCCCCNCc1cc(F)c(OC(F)(F)F)c(F)c1)c1ccncc12 [Example 4] | % | 16.5 |
| CN(C)CCOC(=O)c1ccc2c(c1)nc(OCCOCCCCNCc1cc(F)c(OC(F)(F)F)c(F)c1)c1ccncc12 [Example 3] | % | 33.5 |
| CC(C)(C)OC(=O)c1ccc2c(c1)nc(OCCOCCCCNCc1cc(F)c(OC(F)(F)F)c(F)c1)c1ccncc12 [Example 9] | % | 19.6 |
| CC(=O)OCOC(=O)c1ccc2c(c1)nc(OCCOCCCCNCc1cc(F)c(OC(F)(F)F)c(F)c1)c1ccncc12 [Example 10] | % | 10.1 |

---

assay: Stability in aqueous media (FaSSIF, SGF, PBS); type: physicochemical; settings: PBS pH 7.4, 37° C., 24 h
Decision: PBS (pH 7.4) % remaining 24 h beneath 10% gives TRUE; PBS (pH 7.4) % remaining 24 h meeting or exceeding 10% gives FALSE.

| COMPOUND | ANSWER LABEL |
| --- | --- |
| CCOC(=O)OCOC(=O)c1ccc2c(c1)nc(OCCOCCCCNCc1cc(F)c(OC(F)(F)F)c(F)c1)c1ccncc12 [Example 13] | FALSE |
| CC(C)C(=O)OCOC(=O)c1ccc2c(c1)nc(OCCOCCCCNCc1cc(F)c(OC(F)(F)F)c(F)c1)c1ccncc12 [Example 5] | TRUE |
| CCC(=O)OCOC(=O)c1ccc2c(c1)nc(OCCOCCCCNCc1cc(F)c(OC(F)(F)F)c(F)c1)c1ccncc12 [Example 12] | TRUE |
| Cc1oc(=O)oc1COC(=O)c1ccc2c(c1)nc(OCCOCCCCNCc1cc(F)c(OC(F)(F)F)c(F)c1)c1ccncc12 [Example 7] | TRUE |
| CC(C)(C)C(=O)OCOC(=O)c1ccc2c(c1)nc(OCCOCCCCNCc1cc(F)c(OC(F)(F)F)c(F)c1)c1ccncc12 [Example 6] | TRUE |
| CC(C)OC(=O)c1ccc2c(c1)nc(OCCOCCCCNCc1cc(F)c(OC(F)(F)F)c(F)c1)c1ccncc12 [Example 2] | FALSE |
| CC(C)OC(=O)OCOC(=O)c1ccc2c(c1)nc(OCCOCCCCNCc1cc(F)c(OC(F)(F)F)c(F)c1)c1ccncc12 [Example 14] | TRUE |
